Hello, the source for this data is patent US20210261507A1, in case you need it.

Test: Aspect ratio of crystals measured from microscopic images of suspension concentrate formulations
Format: physicochemical
Settings: microscopic images

COMPOUND | Crystal shape (FIGS. 3a-3d)
CON=C(C(=O)OC)c1ccccc1CON=C(C)c1cccc(C(F)(F)F)c1 | cubic shaped forms
CC(C)(C)C(O)(CCc1ccc(Cl)cc1)Cn1cncn1 (stereo not shown) | cubic shaped forms
Cc1cc(C)nc(Nc2ccccc2)n1 | cubic shaped forms

###

Kindly state Aspect ratio, mean for each of the entries shown.
Experiment: Aspect ratio of crystals measured from microscopic images of suspension concentrate formulations
Assay type: physicochemical
Conditions: mean of 10 crystals, tables 5.1 to 5.4
Give bare numbers.

Previously resolved entries follow.
COMPOUND | Aspect ratio, mean
CON=C(C(=O)OC)c1ccccc1CON=C(C)c1cccc(C(F)(F)F)c1 | 1.25
CC(C)(C)C(O)(CCc1ccc(Cl)cc1)Cn1cncn1 (stereo not shown) | 1.15
Cc1cc(C)nc(Nc2ccccc2)n1 | 1.44

Now look at this one.
### Prompt Give recorded Aspect ratio, mean. O=C(NCCc1ncc(C(F)(F)F)cc1Cl)c1ccccc1C(F)(F)F
### Response 12.02

###

Test: Aspect ratio of crystals measured from microscopic images of suspension concentrate formulations
Type: physicochemical
Conditions: Table 6, crystals present in suspension concentrate formulations, from tables 5.1 to 5.4
MEASUREMENT_LABEL: Aspect ratio
Answers are plain numbers.

Previously resolved entries follow.
COMPOUND | NUMBER
O=C(NCCc1ncc(C(F)(F)F)cc1Cl)c1ccccc1C(F)(F)F | 12.02
Cc1cc(C)nc(Nc2ccccc2)n1 | 1.44
CC(C)(C)C(O)(CCc1ccc(Cl)cc1)Cn1cncn1 (stereo not shown) | 1.15

Now look at this one.
### Prompt Give recorded Aspect ratio. CON=C(C(=O)OC)c1ccccc1CON=C(C)c1cccc(C(F)(F)F)c1
### Response 1.25
